These entries and their values trace back to ChEMBL document CHEMBL1153909.

Reported pKd values follow for various compounds
Assay: Binding affinity to human DM2(1-188) by fluorescence polarization assay
Interpret pKd as the negative base-10 log of the concentration measured in mol/L.

CC[C@H](C)[C@H](CC(=O)N[C@H](CC(=O)N[C@@H](CCC(=O)O)CC(=O)N[C@@H](CC(=O)N[C@H](CC(=O)N[C@@H](CCCN)CC(=O)N[C@@H](CC(=O)N[C@H](CC(=O)N[C@@H](CCC(=O)O)CC(=O)O)Cc1ccccc1)[C@@H](C)CC)Cc1c[nH]c2cc(Cl)ccc12)[C@@H](C)CC)CC(C)C)NC(=O)C[C@H](CCCN)NC(=O)CCSCC(=O)Nc1ccc(-c2c3ccc(=O)cc-3oc3cc(O)ccc23)c(C(=O)O)c1 ... 7.52
CC(C)C[C@@H](CC(=O)N[C@@H](CCC(=O)O)CC(=O)N[C@@H](CC(=O)N[C@H](CC(=O)N[C@@H](CCCN)CC(=O)N[C@@H](CC(=O)N[C@H](CC(=O)N[C@@H](CCC(=O)O)CC(=O)O)Cc1ccccc1)C(C)C)Cc1c[nH]c2ccccc12)C(C)C)NC(=O)C[C@H](NC(=O)C[C@H](CCCN)NC(=O)CCSCC(=O)Nc1ccc(-c2c3ccc(=O)cc-3oc3cc(O)ccc23)c(C(=O)O)c1)C(C)C ... 6.53
CC[C@H](C)[C@H](CC(=O)N[C@H](CC(=O)N[C@@H](CCC(=O)O)CC(=O)N[C@@H](CC(=O)N[C@H](CC(=O)N[C@@H](CCCN)CC(=O)N[C@@H](CC(=O)N[C@H](CC(=O)N[C@@H](CCC(=O)O)CC(=O)O)Cc1ccccc1)[C@@H](C)CC)Cc1c[nH]c2ccccc12)[C@@H](C)CC)CC(C)C)NC(=O)C[C@H](CCCN)NC(=O)CCSCC(=O)Nc1ccc(-c2c3ccc(=O)cc-3oc3cc(O)ccc23)c(C(=O)O)c1 ... 6.69

Turning now to a further record.
So, `CC[C@H](C)[C@H](CC(=O)N[C@H](CC(=O)N[C@@H](CCC(=O)O)CC(=O)N[C@@H](CC(=O)N[C@H](CC(=O)N[C@@H](CCCN)CC(=O)N[C@@H](CC(=O)N[C@H](CC(=O)N[C@@H](CCC(=O)O)CC(=O)O)Cc1ccccc1)[C@@H](C)CC)Cc1cccc(C(F)(F)F)c1)[C@@H](C)CC)CC(C)C)NC(=O)C[C@H](CCCN)NC(=O)CCSCC(=O)Nc1ccc(-c2c3ccc(=O)cc-3oc3cc(O)ccc23)c(C(=O)O)c1` ? Its pKd was 7.55
